- Tested on: primary dermal fibroblasts
- test-name: % change in live cells vs DMSO control; higher = less cytotoxic
- measurement-conditions: 0.740741 µM; donor: 4; time (h post treatment): 48
measured-property: % change in live cells (%)
Provide only the numeric value, understood in %.

compound	target-entity	% change in live cells, %
O=C(Nc1ccc([N+](=O)[O-])cc1Cl)c1cc(Cl)ccc1O [Niclosamide]	primary dermal fibroblasts	-0.333

Query compound follows.
Exam item: Could you share what % change in live cells was measured for "Nc1ccn([C@@H]2O[C@H](CO)[C@@H](O)C2(F)F)c(=O)n1" , tested on primary dermal fibroblasts?
Marked response: -15.7

* * *

- Test system: primary dermal fibroblasts
- test-name: % change in live cells vs DMSO control; higher = less cytotoxic
- measurement-conditions: 6.66667 µM; donor: 3; time (h post treatment): 48
This listing pairs compounds with measured % change in live cells.
Give the value, in units of %, as a plain number.

Examples with their reported % change in live cells follow.
compound	% change in live cells / %
CC(=O)O[C@H]1C[C@H](O[C@H]2[C@@H](O)C[C@H](O[C@H]3[C@@H](O)C[C@H](O[C@H]4CC[C@@]5(C)[C@H](CC[C@@H]6[C@@H]5C[C@@H](O)[C@]5(C)[C@@H](C7=CC(=O)OC7)CC[C@]65O)C4)O[C@@H]3C)O[C@@H]2C)O[C@H](C)[C@H]1O[C@@H]1O[C@H](CO)[C@@H](O)[C@H](O)[C@H]1O [Lanatoside C]	-46
CC(C)c1cnn2c(NCc3ccccc3-n3cccn3)nc(OC3CCCNC3)nc12 (stereo not given)	-23
O=C(Nc1ccc([N+](=O)[O-])cc1Cl)c1cc(Cl)ccc1O [Niclosamide]	-35
Nc1ccn([C@@H]2O[C@H](CO)[C@@H](O)C2(F)F)c(=O)n1	-33.3
O=C(/C=C\n1cnc(-c2cc(C(F)(F)F)cc(C(F)(F)F)c2)n1)NNc1ccccn1 [Verdinexor]	-24.7

Exam item: I would be grateful if you could share the reported % change in live cells for "C=CC(=O)N1CC/C(=C\c2ccc(F)c([N+](=O)[O-])c2)C(=O)/C(=C/c2ccc(F)c([N+](=O)[O-])c2)C1" .
Marked response: -100

Exam item: Continue with "Cc1cccc(C)c1N(CC(=O)Nc1ccc(-c2ncon2)cc1)C(=O)C1CCS(=O)(=O)CC1"
Marked response: -6

Exam item: COc1ccc(-c2nc(N3CCOCC3)c3sc(CN(C)c4ncc(C(=O)NO)cn4)cc3n2)cn1 [Fimepinostat] ?
Marked response: -61

Exam item: Now try "Cc1nc(N(C)C(=O)Cc2ccc(-c3ccccn3)cc2)sc1S(N)(=O)=O" .
Marked response: -11

Exam item: Now give it for "CC1(C)CC(=O)c2c(C(F)(F)F)nn(-c3ccc(C(N)=O)c(N[C@H]4CC[C@H](O)CC4)c3)c2C1" too.
Marked response: -22.7

* * *

Measured % change of HSV-1 GFP signal of individual entries
- Tested on: HSV-1 K26-GFP infected primary human skin cells
- test-name: % change of HSV-1 GFP signal vs untreated infected cells; higher = less antiviral inhibition
- measurement-conditions: 0.003 µM; cell type: primary keratinocytes; donor: 5; time (h post infection): 20
API: value field is a number in %; no unit string.

Record excerpt, results attached:
compound	target-entity	% change of HSV-1 GFP signal, %
Cc1nc(N(C)C(=O)Cc2ccc(-c3ccccn3)cc2)sc1S(N)(=O)=O	HSV-1 K26-GFP infected primary human skin cells	2.94
COc1ccc(-c2nc(N3CCOCC3)c3sc(CN(C)c4ncc(C(=O)NO)cn4)cc3n2)cn1 [Fimepinostat]	HSV-1 K26-GFP infected primary human skin cells	-6.73

Now turn to the next compound.
Exam item: Query: % change of HSV-1 GFP signal; subject: O=C(Nc1ccc([N+](=O)[O-])cc1Cl)c1cc(Cl)ccc1O [Niclosamide]
Marked response: 2.55

* * *

// values below are reported % change of HSV-1 GFP signal
- Test system: HSV-1 K26-GFP infected primary human skin cells
- test-name: % change of HSV-1 GFP signal vs untreated infected cells; higher = less antiviral inhibition
- measurement-conditions: 0.0274 µM; cell type: primary keratinocytes; donor: 3; time (h post infection): 20
Entry rule: numbers only, all in %.

Example results:
molecule	measured-property	val
CC1(C)CC(=O)c2c(C(F)(F)F)nn(-c3ccc(C(N)=O)c(N[C@H]4CC[C@H](O)CC4)c3)c2C1	% change of HSV-1 GFP signal	18.3
COc1ccc(-c2nc(N3CCOCC3)c3sc(CN(C)c4ncc(C(=O)NO)cn4)cc3n2)cn1 [Fimepinostat]	% change of HSV-1 GFP signal	2.91
CC(C)c1cnn2c(NCc3ccccc3-n3cccn3)nc(OC3CCCNC3)nc12 (centres undefined)	% change of HSV-1 GFP signal	-1.73

Exam item: What value of % change of HSV-1 GFP signal has been reported for the following molecule? "Nc1ccn([C@@H]2O[C@H](CO)[C@@H](O)C2(F)F)c(=O)n1"
Marked response: 17.1

* * *

- System: primary keratinocytes
- test-name: % change in live cells vs DMSO control; higher = less cytotoxic
- measurement-conditions: 0.246914 µM; donor: 4; time (h post treatment): 20
Class Met: % change in live cells at least -20%. Class Not met: % change in live cells below -20%.

compound	discrete-label
C=CC(=O)N1CC/C(=C\c2ccc(F)c([N+](=O)[O-])c2)C(=O)/C(=C/c2ccc(F)c([N+](=O)[O-])c2)C1	Met

Exam item: Say whether O=C(/C=C\n1cnc(-c2cc(C(F)(F)F)cc(C(F)(F)F)c2)n1)NNc1ccccn1 [Verdinexor] shows % change in live cells of -20% or more.
Marked response: Met

Exam item: Another compound to check: "Nc1ccn([C@@H]2O[C@H](CO)[C@@H](O)C2(F)F)c(=O)n1"
Marked response: Not met

Exam item: And the next one, "CC1(C)CC(=O)c2c(C(F)(F)F)nn(-c3ccc(C(N)=O)c(N[C@H]4CC[C@H](O)CC4)c3)c2C1" ?
Marked response: Not met

Exam item: Same question for COc1ccc(-c2nc(N3CCOCC3)c3sc(CN(C)c4ncc(C(=O)NO)cn4)cc3n2)cn1 [Fimepinostat] please.
Marked response: Not met

Exam item: Same thing, different compound: CC(C)c1cnn2c(NCc3ccccc3-n3cccn3)nc(OC3CCCNC3)nc12 (stereo not given)
Marked response: Met

* * *

- Tested on: HSV-1 K26-GFP infected primary human skin cells
- test-name: % change of HSV-1 GFP signal vs untreated infected cells; higher = less antiviral inhibition
- measurement-conditions: 0.0823 µM; cell type: primary dermal fibroblasts; donor: 3; time (h post infection): 48
measured-property: % change of HSV-1 GFP signal (%)
# number only, unit % dropped from output

compound	% change of HSV-1 GFP signal / %
Cc1cccc(C)c1N(CC(=O)Nc1ccc(-c2ncon2)cc1)C(=O)C1CCS(=O)(=O)CC1	-29.7

Exam item: Need % change of HSV-1 GFP signal, item CC(C)c1cnn2c(NCc3ccccc3-n3cccn3)nc(OC3CCCNC3)nc12 (centres undefined)
Marked response: 14.2

Exam item: Also "Cc1nc(N(C)C(=O)Cc2ccc(-c3ccccn3)cc2)sc1S(N)(=O)=O" ?
Marked response: -30

Exam item: Repeat with COc1ccc(-c2nc(N3CCOCC3)c3sc(CN(C)c4ncc(C(=O)NO)cn4)cc3n2)cn1 [Fimepinostat]
Marked response: 27.5

* * *

- Tested on: HSV-1 K26-GFP infected primary human skin cells
- test-name: % change of HSV-1 GFP signal vs untreated infected cells; higher = less antiviral inhibition
- measurement-conditions: 6.6667 µM; cell type: primary dermal fibroblasts; donor: 4; time (h post infection): 48
Reported % change of HSV-1 GFP signal values follow for various compounds
Report the figure in % without appending any unit label.

Example entries and their recorded answers appear below.
compound	measured-property	val
Cc1cccc(C)c1N(CC(=O)Nc1ccc(-c2ncon2)cc1)C(=O)C1CCS(=O)(=O)CC1	% change of HSV-1 GFP signal	-99
CC(C)c1cnn2c(NCc3ccccc3-n3cccn3)nc(OC3CCCNC3)nc12 (centres undefined)	% change of HSV-1 GFP signal	-92.4
Cc1nc(N(C)C(=O)Cc2ccc(-c3ccccn3)cc2)sc1S(N)(=O)=O	% change of HSV-1 GFP signal	-99.8

Query compound follows.
Exam item: Look up % change of HSV-1 GFP signal: "CC1(C)CC(=O)c2c(C(F)(F)F)nn(-c3ccc(C(N)=O)c(N[C@H]4CC[C@H](O)CC4)c3)c2C1"
Marked response: -99.7

* * *

- Tested on: HSV-1 K26-GFP infected 3D skin equivalent
- test-name: % change of tdTomato fibroblast signal relative to infected DMSO control; higher = higher signal (negative = inhibition / toxicity)
- measurement-conditions: 1.111111 µM; time (h post infection): 48; model: submerged
measured-property: % change of tdTomato fibroblast signal

As a guide, the following entries are already answered.
compound	% change of tdTomato fibroblast signal
Cc1nc(N(C)C(=O)Cc2ccc(-c3ccccn3)cc2)sc1S(N)(=O)=O	-3.09%
COc1ccc(-c2nc(N3CCOCC3)c3sc(CN(C)c4ncc(C(=O)NO)cn4)cc3n2)cn1 [Fimepinostat]	8.55%
C=CC(=O)N1CC/C(=C\c2ccc(F)c([N+](=O)[O-])c2)C(=O)/C(=C/c2ccc(F)c([N+](=O)[O-])c2)C1	-15%

# input for lookup
Exam item: For HSV-1 K26-GFP infected 3D skin equivalent, provide % change of tdTomato fibroblast signal of "CC1(C)CC(=O)c2c(C(F)(F)F)nn(-c3ccc(C(N)=O)c(N[C@H]4CC[C@H](O)CC4)c3)c2C1" please.
Marked response: -52.2%
